- targetOrTestSystem: Prostaglandin G/H synthase 1 (Ovis aries)
- Sequence (P05979 whole entry): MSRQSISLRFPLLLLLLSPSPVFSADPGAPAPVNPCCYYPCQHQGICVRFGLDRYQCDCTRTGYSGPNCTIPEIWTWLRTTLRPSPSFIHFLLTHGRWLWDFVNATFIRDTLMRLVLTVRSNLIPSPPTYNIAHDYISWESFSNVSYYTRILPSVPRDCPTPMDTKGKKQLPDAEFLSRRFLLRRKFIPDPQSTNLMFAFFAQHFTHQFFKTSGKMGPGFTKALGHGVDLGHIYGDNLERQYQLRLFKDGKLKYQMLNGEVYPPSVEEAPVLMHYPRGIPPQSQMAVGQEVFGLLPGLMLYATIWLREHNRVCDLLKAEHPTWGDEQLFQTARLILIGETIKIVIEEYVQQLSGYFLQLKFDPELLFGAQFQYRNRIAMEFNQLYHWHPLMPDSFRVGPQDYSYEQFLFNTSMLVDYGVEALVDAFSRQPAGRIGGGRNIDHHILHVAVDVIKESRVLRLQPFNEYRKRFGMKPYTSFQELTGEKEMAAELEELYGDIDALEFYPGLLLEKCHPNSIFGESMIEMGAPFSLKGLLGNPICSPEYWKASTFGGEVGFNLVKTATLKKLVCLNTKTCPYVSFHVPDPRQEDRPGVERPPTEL
observedProperty: pIC50
// pIC50 is dimensionless: -log10 of concentration (M)

Reference set, count: 3
>>> resultvalue("Cc1nc(-c2ccccc2)sc1-c1ccnn1-c1ccc(S(N)(=O)=O)cc1")
5.01
>>> resultvalue("C/C(=N\\Nc1ccc(S(N)(=O)=O)cc1)c1sc(-c2ccccc2)nc1C")
5.01
>>> resultvalue("COc1ccc([C@@H]2CC(c3sc(-c4ccccc4)nc3C)=NN2c2ccc(S(N)(=O)=O)cc2)cc1")
5.17

query: Reported pIC50, molecule Cc1nc(-c2ccccc2)sc1-c1ccnn1-c1ccc(S(=O)(=O)/N=C/N(C)C)cc1 : ____
result: 5.06
